# ASSAY_SYSTEM: T1, recombinant BACE1 (BACE1 extracellular domain, R&D Systems Cat#931-AS) (UniProt P56817 22-457)
# T1 construct: extracellular domain; also called BACE1 extracellular domain protein
# T1 sequence (P56817 22-457): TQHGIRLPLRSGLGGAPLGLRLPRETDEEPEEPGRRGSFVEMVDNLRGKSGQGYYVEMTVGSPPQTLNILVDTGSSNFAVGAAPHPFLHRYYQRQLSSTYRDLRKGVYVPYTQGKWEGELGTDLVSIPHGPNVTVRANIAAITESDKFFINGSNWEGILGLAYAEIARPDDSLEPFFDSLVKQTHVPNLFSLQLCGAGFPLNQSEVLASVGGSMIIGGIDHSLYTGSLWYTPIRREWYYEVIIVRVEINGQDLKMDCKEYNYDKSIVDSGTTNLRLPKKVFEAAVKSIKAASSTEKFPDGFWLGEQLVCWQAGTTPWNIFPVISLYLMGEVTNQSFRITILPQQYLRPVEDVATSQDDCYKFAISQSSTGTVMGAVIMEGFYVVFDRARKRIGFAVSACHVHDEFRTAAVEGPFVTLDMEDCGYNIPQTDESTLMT
# ASSAY_EXPLANATION: SPR Biacore
QUANTITY: Kd (nM)
Just the number in nM, nothing appended.

# lookup: Kd of 2H8.12 (antibody, human IgG1, V domains shown, human IgG1/kappa; also called 2H8_HCvar6 + 2H8_LCvar2) VH: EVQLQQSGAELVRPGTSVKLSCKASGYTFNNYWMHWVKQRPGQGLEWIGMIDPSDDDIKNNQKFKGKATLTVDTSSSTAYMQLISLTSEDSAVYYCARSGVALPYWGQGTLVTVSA VL: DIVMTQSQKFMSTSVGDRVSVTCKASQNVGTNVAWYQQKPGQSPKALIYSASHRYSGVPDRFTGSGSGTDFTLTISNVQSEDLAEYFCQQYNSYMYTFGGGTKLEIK
171

Further cases:
# lookup: Kd of 2H8.24 (antibody, human IgG1, V domains shown, human IgG1/kappa; also called 2H8_HCvar6 + 2H8_LCvar4) VH: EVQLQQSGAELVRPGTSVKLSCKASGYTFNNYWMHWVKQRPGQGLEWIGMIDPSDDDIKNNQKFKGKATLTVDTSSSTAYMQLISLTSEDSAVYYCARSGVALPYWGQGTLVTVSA VL: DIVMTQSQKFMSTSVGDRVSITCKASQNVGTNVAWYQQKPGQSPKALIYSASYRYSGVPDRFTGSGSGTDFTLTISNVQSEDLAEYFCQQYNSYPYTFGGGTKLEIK
183
